Measured values drawn from paper PMC9860728 for this set.

Biological target: MAO-B (Homo sapiens, UniProt P27338)
Construct: purchased Sigma Aldrich
Sequence (P27338 1-520): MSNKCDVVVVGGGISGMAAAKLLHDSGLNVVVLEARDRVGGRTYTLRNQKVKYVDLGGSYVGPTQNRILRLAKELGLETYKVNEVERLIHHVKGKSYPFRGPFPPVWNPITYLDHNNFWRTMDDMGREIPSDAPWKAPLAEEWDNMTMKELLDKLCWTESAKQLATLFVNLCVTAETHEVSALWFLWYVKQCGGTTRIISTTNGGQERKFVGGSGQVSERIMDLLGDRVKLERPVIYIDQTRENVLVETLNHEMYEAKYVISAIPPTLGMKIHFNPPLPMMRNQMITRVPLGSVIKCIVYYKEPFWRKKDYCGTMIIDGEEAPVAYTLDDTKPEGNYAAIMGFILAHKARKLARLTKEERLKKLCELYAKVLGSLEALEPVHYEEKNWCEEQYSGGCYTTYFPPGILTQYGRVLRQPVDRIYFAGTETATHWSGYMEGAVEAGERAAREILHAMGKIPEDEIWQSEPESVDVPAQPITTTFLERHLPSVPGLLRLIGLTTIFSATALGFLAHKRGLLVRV
Experiment: MAO-B enzyme inhibition assay (benzylamine substrate)
Assay type: biochemical
Details: 10 μM compound; mean ± SD; read-out: Residual Activities at 10 μM (%) MAO-B
Each entry below carries its recorded remaining activity at 10 µM.

{"compound_structure_string": "CN1CCN(c2ccc(C(=O)/C=C/c3cc(F)cc(C(F)(F)F)c3)cc2)CC1", "value_unit": "%", "remaining activity at 10 µM": 20.4}
{"compound_structure_string": "CN1CCN(c2ccc(C(=O)/C=C/c3cccc(C(F)(F)F)c3)cc2)CC1", "value_unit": "%", "remaining activity at 10 µM": 12.8}
{"compound_structure_string": "CN1CCN(c2ccc(C(=O)/C=C/c3ccc(F)cc3)cc2)CC1", "value_unit": "%", "remaining activity at 10 µM": 22.7}
{"compound_structure_string": "CN1CCN(c2ccc(C(=O)/C=C/c3cc(C(F)(F)F)cc(C(F)(F)F)c3)cc2)CC1", "value_unit": "%", "remaining activity at 10 µM": 67.8}
{"compound_structure_string": "CN1CCN(c2ccc(C(=O)/C=C/c3cc(C(F)(F)F)ccc3Cl)cc2)CC1", "value_unit": "%", "remaining activity at 10 µM": 22.9}
{"compound_structure_string": "CN1CCN(c2ccc(C(=O)/C=C/c3ccc(C#N)cc3)cc2)CC1", "value_unit": "%", "remaining activity at 10 µM": 16.7}
{"compound_structure_string": "CC(C)c1ccc(/C=C/C(=O)c2ccc(N3CCN(C)CC3)cc2)cc1", "value_unit": "%", "remaining activity at 10 µM": 44.1}
{"compound_structure_string": "CSc1ccc(/C=C/C(=O)c2ccc(N3CCN(C)CC3)cc2)cc1", "value_unit": "%", "remaining activity at 10 µM": 40}
{"compound_structure_string": "CN1CCN(c2ccc(C(=O)/C=C/c3ccc(C(F)(F)F)cc3)cc2)CC1", "value_unit": "%", "remaining activity at 10 µM": 21}
{"compound_structure_string": "COc1cc(/C=C/C(=O)c2ccc(N3CCN(C)CC3)cc2)ccc1F", "value_unit": "%", "remaining activity at 10 µM": 39.9}
{"compound_structure_string": "CN1CCN(c2ccc(C(=O)/C=C/c3ccc(F)cc3F)cc2)CC1", "value_unit": "%", "remaining activity at 10 µM": 13.1}
{"compound_structure_string": "COc1ccc(/C=C/C(=O)c2ccc(N3CCN(C)CC3)cc2)c(C(F)(F)F)c1", "value_unit": "%", "remaining activity at 10 µM": 15}
{"compound_structure_string": "CN1CCN(c2ccc(C(=O)/C=C/c3ccc(OC(F)F)cc3)cc2)CC1", "value_unit": "%", "remaining activity at 10 µM": 17.3}
{"compound_structure_string": "CN1CCN(c2ccc(C(=O)/C=C/c3ccc(N(C)C)cc3)cc2)CC1", "value_unit": "%", "remaining activity at 10 µM": 21.3}

====

target: MAO-A (Homo sapiens); construct: purchased Sigma Aldrich; experiment: MAO-A enzyme inhibition assay (kynuramine substrate); format: biochemical; details: 10 μM compound; mean ± SD; read-out: Residual Activities at 10 μM (%) MAO-A
Some molecules, each annotated with its measured remaining activity at 10 µM.
measured_metric: remaining activity at 10 µM (%)

{"compound_structure_string": "CN1CCN(c2ccc(C(=O)/C=C/c3ccc(F)cc3)cc2)CC1", "experimental_result": 103}
{"compound_structure_string": "CN1CCN(c2ccc(C(=O)/C=C/c3cc(C(F)(F)F)cc(C(F)(F)F)c3)cc2)CC1", "experimental_result": 97.1}
{"compound_structure_string": "CN1CCN(c2ccc(C(=O)/C=C/c3cccc(C(F)(F)F)c3)cc2)CC1", "experimental_result": 118}
{"compound_structure_string": "CN1CCN(c2ccc(C(=O)/C=C/c3ccc(N(C)C)cc3)cc2)CC1", "experimental_result": 83.6}
{"compound_structure_string": "COc1ccc(/C=C/C(=O)c2ccc(N3CCN(C)CC3)cc2)c(C(F)(F)F)c1", "experimental_result": 44.5}
{"compound_structure_string": "CSc1ccc(/C=C/C(=O)c2ccc(N3CCN(C)CC3)cc2)cc1", "experimental_result": 97.2}

====

target: AChE (Electrophorus electricus); assay: AChE inhibition assay (Ellman method, ATCI); type: biochemical; conditions: 10 μM compound; mean ± SD; read-out: Residual Activities at 10 μM (%) AChE
Sequence (O42275 24-633): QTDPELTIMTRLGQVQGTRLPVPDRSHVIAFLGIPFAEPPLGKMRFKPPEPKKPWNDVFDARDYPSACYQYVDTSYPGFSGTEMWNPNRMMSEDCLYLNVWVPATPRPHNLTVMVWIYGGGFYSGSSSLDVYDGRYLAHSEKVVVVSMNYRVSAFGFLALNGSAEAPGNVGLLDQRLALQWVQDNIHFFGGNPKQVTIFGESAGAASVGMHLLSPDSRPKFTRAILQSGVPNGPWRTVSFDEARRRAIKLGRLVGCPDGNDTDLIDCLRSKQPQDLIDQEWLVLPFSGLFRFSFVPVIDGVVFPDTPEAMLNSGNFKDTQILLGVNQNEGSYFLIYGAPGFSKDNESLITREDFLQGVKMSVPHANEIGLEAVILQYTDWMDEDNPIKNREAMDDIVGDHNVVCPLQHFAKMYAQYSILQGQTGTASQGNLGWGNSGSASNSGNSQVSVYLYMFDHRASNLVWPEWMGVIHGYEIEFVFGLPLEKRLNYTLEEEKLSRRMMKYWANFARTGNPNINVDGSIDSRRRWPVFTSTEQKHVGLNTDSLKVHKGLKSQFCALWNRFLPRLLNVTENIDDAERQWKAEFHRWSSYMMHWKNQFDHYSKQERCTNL
Entries and their remaining activity at 10 µM

{"compound_structure_string": "CN1CCN(c2ccc(C(=O)/C=C/c3cc(C(F)(F)F)cc(C(F)(F)F)c3)cc2)CC1", "remaining activity at 10 µM, %": 57.1}
{"compound_structure_string": "CN1CCN(c2ccc(C(=O)/C=C/c3ccc(C(F)(F)F)cc3)cc2)CC1", "remaining activity at 10 µM, %": 19}
{"compound_structure_string": "CN1CCN(c2ccc(C(=O)/C=C/c3cc(C(F)(F)F)ccc3Cl)cc2)CC1", "remaining activity at 10 µM, %": 37.6}
{"compound_structure_string": "CSc1ccc(/C=C/C(=O)c2ccc(N3CCN(C)CC3)cc2)cc1", "remaining activity at 10 µM, %": 50.4}
{"compound_structure_string": "CN1CCN(c2ccc(C(=O)/C=C/c3ccc(OC(F)F)cc3)cc2)CC1", "remaining activity at 10 µM, %": 38}
{"compound_structure_string": "COc1ccc(/C=C/C(=O)c2ccc(N3CCN(C)CC3)cc2)c(C(F)(F)F)c1", "remaining activity at 10 µM, %": 37.8}
{"compound_structure_string": "CN1CCN(c2ccc(C(=O)/C=C/c3ccc(F)cc3F)cc2)CC1", "remaining activity at 10 µM, %": 33.8}
{"compound_structure_string": "CN1CCN(c2ccc(C(=O)/C=C/c3ccc(F)c(C(F)(F)F)c3)cc2)CC1", "remaining activity at 10 µM, %": 46.9}

====

target: AChE (Electrophorus electricus); test: AChE inhibition assay (Ellman method, ATCI); type: biochemical; conditions: AChE selectivity over BChE, based on IC50 values

{"compound": "CN1CCN(c2ccc(C(=O)/C=C/c3ccc(C(F)(F)F)cc3)cc2)CC1 [Compound 2b]", "SI (ChE)": 5.92}
{"compound": "CN1CCN(c2ccc(C(=O)/C=C/c3ccc(Cl)c(C(F)(F)F)c3)cc2)CC1 [Compound 2l]", "SI (ChE)": 1.85}
{"compound": "CSc1ccc(/C=C/C(=O)c2ccc(N3CCN(C)CC3)cc2)cc1 [Compound 2g]", "SI (ChE)": ">3.22"}
{"compound": "CN1CCN(c2ccc(C(=O)/C=C/c3cc(C(F)(F)F)cc(C(F)(F)F)c3)cc2)CC1 [Compound 2j]", "SI (ChE)": ">2.60"}
{"compound": "CN1CCN(c2ccc(C(=O)/C=C/c3ccc(F)cc3)cc2)CC1 [Compound 2c]", "SI (ChE)": 1.79}

====

Parameter remaining activity at 10 µM: see the listing below.
Biological target: MAO-A (Homo sapiens)
Construct: purchased Sigma Aldrich
Sequence (P21397 1-527): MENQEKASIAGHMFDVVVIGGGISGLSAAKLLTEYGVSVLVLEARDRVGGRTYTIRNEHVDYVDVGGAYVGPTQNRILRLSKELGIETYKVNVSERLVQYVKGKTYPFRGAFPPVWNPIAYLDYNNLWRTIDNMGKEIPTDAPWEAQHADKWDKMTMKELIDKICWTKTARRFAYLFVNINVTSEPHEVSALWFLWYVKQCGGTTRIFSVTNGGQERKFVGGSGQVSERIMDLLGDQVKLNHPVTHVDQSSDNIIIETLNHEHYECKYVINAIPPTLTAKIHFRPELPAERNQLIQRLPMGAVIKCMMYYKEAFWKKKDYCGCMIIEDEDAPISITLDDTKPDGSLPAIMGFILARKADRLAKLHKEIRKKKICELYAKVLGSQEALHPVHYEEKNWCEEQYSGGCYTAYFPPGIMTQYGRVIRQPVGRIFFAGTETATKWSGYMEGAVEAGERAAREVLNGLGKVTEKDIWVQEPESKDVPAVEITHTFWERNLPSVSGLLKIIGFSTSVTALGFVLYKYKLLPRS
Test: MAO-A enzyme inhibition assay (kynuramine substrate)
Type: biochemical
Settings: 10 μM compound; mean ± SD; read-out: Residual Activities at 10 μM (%) MAO-A

{"compound_structure_string": "CN1CCN(c2ccc(C(=O)/C=C/c3cc(C(F)(F)F)ccc3Cl)cc2)CC1", "remaining activity at 10 µM": "92.5%"}
{"compound_structure_string": "CN1CCN(c2ccc(C(=O)/C=C/c3ccc(F)cc3F)cc2)CC1", "remaining activity at 10 µM": "72.7%"}
{"compound_structure_string": "CN1CCN(c2ccc(C(=O)/C=C/c3ccc(OC(F)F)cc3)cc2)CC1", "remaining activity at 10 µM": "55.2%"}
{"compound_structure_string": "COc1cc(/C=C/C(=O)c2ccc(N3CCN(C)CC3)cc2)ccc1F", "remaining activity at 10 µM": "78.8%"}
